target entity: T1, recombinant human FGFR3 IIIb Fc fusion protein (human, UniProt P22607-2 23-377, limits assumed)
T1 construct: Bought reagent; the IIIb splice isoform is meant; also called rhFGFR3 IIIb Fc; hFGFR3 IIIb; not shown: Fc fragment (removable by Factor Xa, detected with anti-human IgG)
T1 sequence (looked up): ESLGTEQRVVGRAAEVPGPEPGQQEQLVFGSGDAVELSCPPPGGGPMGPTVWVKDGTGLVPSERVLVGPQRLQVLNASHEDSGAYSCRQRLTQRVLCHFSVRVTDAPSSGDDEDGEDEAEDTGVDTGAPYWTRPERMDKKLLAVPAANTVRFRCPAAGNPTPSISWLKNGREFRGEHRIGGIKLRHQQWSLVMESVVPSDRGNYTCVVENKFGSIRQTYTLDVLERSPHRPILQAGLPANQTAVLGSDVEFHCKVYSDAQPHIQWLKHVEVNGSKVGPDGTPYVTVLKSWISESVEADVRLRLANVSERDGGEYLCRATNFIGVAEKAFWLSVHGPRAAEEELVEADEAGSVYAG
procedure details: ECL competition assay: inhibition of rhFGFR3 IIIb Fc binding to coated FGF1 (competitor FGF1)
Listed below: IC50 values for each entry.
reported endpoint: IC50 (nM)

- binder: "27H2 Fab (Fab, V domains shown, not shown: a dimerising Fc or GST, Fab fragment of murine 27H2; preparation not described; also called anti-FGFR3 Fab fragment 27H2) VH: EIQLQQSGPELVKPGASVKVSCKASGYAFTSYNMYWVKQSHGKSLEWIGYIDPYNGGTRYNQKFKGKATMTVDKSSSTAYMHLNSLTSEDSAVYYCAREGGNYEAWFAYWGQGTLVTVSA VL: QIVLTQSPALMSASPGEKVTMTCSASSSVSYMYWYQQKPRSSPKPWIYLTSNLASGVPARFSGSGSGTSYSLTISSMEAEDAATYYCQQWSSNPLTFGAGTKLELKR"
  test value: 53.5
- binder: "anti-FGFR3 monoclonal antibody 2G4 (antibody, mouse IgG1, kappa, V domains shown, Murine IgG1/kappa from hybridoma; also called 2G4 IgG1; murine antibody 2G4) VH: EIQLQQSGPELVKPGASVKVSCKASGYAFTSYNMYWVKQSHGKSLEWIGYIDPYNGGTRDNQKFKGKATLTVDKSSSTAYMHLNSLTSEDSAVYYCAREGGNYEAWFAYWGQGTLVTVSA VL: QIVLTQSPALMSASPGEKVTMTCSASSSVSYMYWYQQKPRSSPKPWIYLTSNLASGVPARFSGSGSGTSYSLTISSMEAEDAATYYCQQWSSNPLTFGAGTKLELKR"
  test value: 11.1
